Parameter: IRF reporter. Scope: all listed entries.
Tested on: RAW-Dual (murine macrophage reporter line)
TEST SUMMARY: IRF reporter (Lucia luciferase) activity fold change vs agonist alone; higher = enhanced IRF activity
ASSAY SETUP: modulator concentration 10 µM; agonist: 3'3'-cGAMP 10 ug/mL
Returns: the value as a bare number; no unit string appended.

# COMPOUND, SYSTEM NAME, OBSERVED VALUE
measured = [
    ("COc1cccc(N2CCN(C3CCN(CC4CCOCC4)CC3)CC2)c1", "RAW-Dual (murine macrophage reporter line)", 0.901),
    ("CCOC(=O)c1cnn(CCOc2ccccc2)c1N", "RAW-Dual (murine macrophage reporter line)", 0.975),
    ("COC(=O)C1=C(C)NC(C)=C(C(=O)OC(C)(C)CN(C)CCC(c2ccccc2)c2ccccc2)C1c1cccc([N+](=O)[O-])c1.Cl (stereo not drawn)", "RAW-Dual (murine macrophage reporter line)", 0.132),
    ("COC(=O)C1=C(C)NC(C)=C(C(=O)O[C@@H]2CCCN(Cc3ccccc3)C2)[C@@H]1c1cccc([N+](=O)[O-])c1", "RAW-Dual (murine macrophage reporter line)", 0.412),
    ("CCc1ccc(Cc2ccc3c(c2)[C@]2(OC3)O[C@H](CO)[C@@H](O)[C@H](O)[C@H]2O)cc1.O", "RAW-Dual (murine macrophage reporter line)", 0.883),
    ("C=Cc1c(C)c2cc3nc(cc4[nH]c(cc5nc(cc1[nH]2)C(C)=C5CCC(=O)O)c(CCC(=O)OC)c4C)[C@@]1(C)C3=CC=C(C(=O)OC)[C@H]1C(=O)OC", "RAW-Dual (murine macrophage reporter line)", 0.0175),
    ("CC(/C=C1\\SC(=S)N(CC(=O)O)C1=O)=C\\c1ccccc1", "RAW-Dual (murine macrophage reporter line)", 0.977),
    ("Cc1c(C)n2c3c(=O)n(Cc4ccccc4F)c(=O)n(C)c3nc2n1CCCN1CCOCC1", "RAW-Dual (murine macrophage reporter line)", 1.11),
]

Challenge: Tell us which IRF reporter value is on record for "O=C(O)c1cccnc1C(=O)O"
Response given: 0.941

Challenge: Tell us which IRF reporter value is on record for "Cc1cc(NC(=O)c2ccoc2COc2ccccc2)no1"
Response given: 1.21

Challenge: Tell us which IRF reporter value is on record for "CCc1ccccc1N(CC(=O)Nc1ccc(Cl)cc1C)S(C)(=O)=O"
Response given: 0.88

Challenge: Tell us which IRF reporter value is on record for "COc1ccc(C=CC(=O)O)cc1OC"
Response given: 1.03

Challenge: Tell us which IRF reporter value is on record for "CCOc1ccc(CN2CCN(c3cc(C)nc4c5c(C)cc(C)nc5nn34)CC2)cc1"
Response given: 1.05

Challenge: Tell us which IRF reporter value is on record for CCOc1ccc2nc(SC3CC(=O)N(c4cccc(Cl)c4)C3=O)sc2c1 (stereo not drawn)
Response given: 0.778

Challenge: Tell us which IRF reporter value is on record for "Cc1occc1C(=O)Nc1ccc(F)c(F)c1"
Response given: 0.704

Challenge: Tell us which IRF reporter value is on record for "CCCCCCOc1ccc(OC(=O)c2ccc(OC)cc2)cc1"
Response given: 0.95

Challenge: Tell us which IRF reporter value is on record for "COc1ccc(NC(=O)CCn2nc(C)nc2C)cc1"
Response given: 0.961

Challenge: Tell us which IRF reporter value is on record for "COc1ccc(-c2cc(C(F)F)nn2-c2ccc(S(N)(=O)=O)cc2)cc1F"
Response given: 0.935

Challenge: Tell us which IRF reporter value is on record for "O=C1CN(C(=O)c2cc3ccccc3o2)c2ccccc2N1"
Response given: 0.992

Challenge: Tell us which IRF reporter value is on record for Cc1cccc(C(=O)N2N=C(C3CCCCC3)CC2(O)C(F)(F)F)c1O (stereo not drawn)
Response given: 0.939

Challenge: Tell us which IRF reporter value is on record for "CCOC(=O)c1ccc(NC(=O)c2sc(NC(=O)c3cc(OC)c(OC)c(OC)c3)c(C(=O)OCC)c2C)cc1"
Response given: 0.969

Challenge: Tell us which IRF reporter value is on record for "CCCCc1oc2ccc(NS(C)(=O)=O)cc2c1C(=O)c1ccc(OCCCN(CCCC)CCCC)cc1.Cl"
Response given: 0.945

Challenge: Tell us which IRF reporter value is on record for CCCCSc1nnc2c(n1)OC(c1cccc(C)n1)Nc1ccc(Br)cc1-2 (stereo not drawn)
Response given: 0.985

Challenge: Tell us which IRF reporter value is on record for "O=c1[nH]c(=O)n([C@H]2C[C@H](O)[C@@H](CO)O2)cc1F"
Response given: 0.75

Challenge: Tell us which IRF reporter value is on record for OCC(O)CN1CCN(c2ccccc2)CC1 (stereo not drawn)
Response given: 1.03

Challenge: Tell us which IRF reporter value is on record for O=C(Nc1nccs1)c1ccc2c(c1)C(=O)N(CC1CCCO1)C2=O (stereo not drawn)
Response given: 0.997

Challenge: Tell us which IRF reporter value is on record for "CCOC(=O)C1=C(C)N(CC(C)C)C(=O)C1=Cc1cccc(Br)c1"
Response given: 0.909

Challenge: Tell us which IRF reporter value is on record for COC(=O)Nc1nc2ccc(S(=O)c3ccccc3)cc2[nH]1 (stereo not drawn)
Response given: 0.279

Challenge: Tell us which IRF reporter value is on record for Cl.Nc1c(Br)cc(Br)cc1CNC1CCC(O)CC1 (stereo not drawn)
Response given: 0.908

Challenge: Tell us which IRF reporter value is on record for "COc1ccc(S(=O)(=O)NCc2ccnc(N3CCOCC3)n2)cc1Cl"
Response given: 1.07

Challenge: Tell us which IRF reporter value is on record for "O=S(=O)(c1ccc(F)cc1)N1CCC(c2nc3ccccc3[nH]2)CC1"
Response given: 0.913

Challenge: Tell us which IRF reporter value is on record for "O=C(O)CCCCCN1C(=O)C(=Cc2cn(-c3ccccc3)nc2-c2cccs2)SC1=S"
Response given: 1.03

Challenge: Tell us which IRF reporter value is on record for "Clc1ccc(Nc2nnc(Cc3ccncc3)c3ccccc23)cc1"
Response given: 0.785

All values here come from the supplement of paper PMC10646978.
